# koff values compiled below
Target: T1, human NPR1 extracellular domain expressed with a C-terminal mouse IgG2a (hNPR1-mFc) (human)
T1 construct: also called hNPR1-Fc; human NPR1 dimer
T1 chain: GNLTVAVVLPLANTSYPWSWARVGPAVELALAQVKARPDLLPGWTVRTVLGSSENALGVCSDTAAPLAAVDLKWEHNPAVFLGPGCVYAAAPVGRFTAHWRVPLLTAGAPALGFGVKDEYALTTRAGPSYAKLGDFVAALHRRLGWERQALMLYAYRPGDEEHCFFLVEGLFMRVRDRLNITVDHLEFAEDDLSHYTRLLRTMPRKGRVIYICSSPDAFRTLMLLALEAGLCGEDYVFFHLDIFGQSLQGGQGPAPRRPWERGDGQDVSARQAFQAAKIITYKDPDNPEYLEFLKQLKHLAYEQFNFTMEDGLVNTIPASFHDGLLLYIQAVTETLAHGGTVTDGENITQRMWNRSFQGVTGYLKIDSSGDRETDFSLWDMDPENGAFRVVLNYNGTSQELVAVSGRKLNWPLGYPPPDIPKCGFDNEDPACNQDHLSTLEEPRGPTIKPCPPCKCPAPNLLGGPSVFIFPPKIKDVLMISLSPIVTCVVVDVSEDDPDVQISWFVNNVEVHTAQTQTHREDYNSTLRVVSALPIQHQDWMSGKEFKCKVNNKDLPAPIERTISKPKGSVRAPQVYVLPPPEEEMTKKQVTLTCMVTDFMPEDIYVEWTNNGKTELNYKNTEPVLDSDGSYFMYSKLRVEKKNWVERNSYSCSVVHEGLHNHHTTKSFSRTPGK
Assay: SPR, mAb captured, 25 C
readout name: koff (s⁻¹)

• mAb22035 (antibody, V domains shown) VH: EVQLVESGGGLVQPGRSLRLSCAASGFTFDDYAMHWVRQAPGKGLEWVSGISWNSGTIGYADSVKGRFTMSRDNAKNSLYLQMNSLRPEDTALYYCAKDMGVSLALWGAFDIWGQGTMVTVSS VL: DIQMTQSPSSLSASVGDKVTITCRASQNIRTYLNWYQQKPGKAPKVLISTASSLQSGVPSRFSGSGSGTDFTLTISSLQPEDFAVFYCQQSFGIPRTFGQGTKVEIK = 8.2e-05
• mAb22033 (antibody, V domains shown) VH: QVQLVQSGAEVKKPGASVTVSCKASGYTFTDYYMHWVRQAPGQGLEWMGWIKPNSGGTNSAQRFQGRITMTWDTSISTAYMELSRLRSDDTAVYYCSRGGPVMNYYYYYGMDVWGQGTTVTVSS VL: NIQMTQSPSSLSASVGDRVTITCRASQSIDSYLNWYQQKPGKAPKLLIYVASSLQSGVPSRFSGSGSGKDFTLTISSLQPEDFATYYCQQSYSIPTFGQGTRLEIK = 6.38e-05
• mAb25479 (antibody, V domains shown) VH: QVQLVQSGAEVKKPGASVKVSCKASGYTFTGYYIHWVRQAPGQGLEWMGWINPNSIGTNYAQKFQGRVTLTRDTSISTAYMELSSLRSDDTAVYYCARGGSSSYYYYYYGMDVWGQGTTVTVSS VL: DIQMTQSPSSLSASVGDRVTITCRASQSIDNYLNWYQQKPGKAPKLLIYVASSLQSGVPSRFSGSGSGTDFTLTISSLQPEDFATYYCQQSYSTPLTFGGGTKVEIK = 0.000852
• mAb25497 (antibody, V domains shown) VH: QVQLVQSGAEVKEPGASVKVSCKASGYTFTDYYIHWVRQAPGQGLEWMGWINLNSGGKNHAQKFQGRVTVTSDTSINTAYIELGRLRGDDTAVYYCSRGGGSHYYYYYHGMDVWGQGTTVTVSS VL: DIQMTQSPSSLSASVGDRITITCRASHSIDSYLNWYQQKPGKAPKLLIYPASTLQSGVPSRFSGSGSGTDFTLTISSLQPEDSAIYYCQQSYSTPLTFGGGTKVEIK = 4.83e-05
• mAb25508 (antibody, V domains shown) VH: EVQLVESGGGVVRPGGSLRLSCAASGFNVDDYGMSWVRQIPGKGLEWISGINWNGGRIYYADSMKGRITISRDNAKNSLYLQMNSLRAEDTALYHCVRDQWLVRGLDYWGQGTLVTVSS VL: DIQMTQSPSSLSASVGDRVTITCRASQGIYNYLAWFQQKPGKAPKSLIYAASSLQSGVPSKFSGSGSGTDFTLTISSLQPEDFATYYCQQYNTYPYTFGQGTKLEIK = 6.85e-05
• mAb25491 (antibody, V domains shown) VH: QVQLVQSGAEVMKPGASVKVSCKASGYTFTGYYIHWVRQAPGQGLEWMGWITPNSGATNYAQKFQGRVTLTRDTSISTAYMELTRLKSDDTAVYYCARGGQLEFFYYYYGMDVWGQGTTVTVSS VL: DIQMTQSPSSLSASAGDRVTITCRASQSIDSYLNWYQQKPGKAPKLLISATSGFQSGVPSRFSGSGSGTDFTLTISSLQPEDFGTYYCQQSYTTPITFGQGTRLEIK = 0.000124
